Data origin, for the record: paper PMC3064480

Give Kd for every item shown.
- measurement target: Recombinant human TβRI-ED (residues 1-101) (human)
- test protocol: ELISA
One number for each entry, in µM.

Batch request: Kd per item, same order as input.
1. MHRMPSFLPTTL [Pep2 (synthetic peptide …)]
2. LTGKNFPMFHRN [phage clone 1 (M13 phage displaying … on the N-terminus of the PIII protein)]
3. MHRMPSFLPTTL [phage clone 2 (M13 phage displaying … on the N-terminus of the PIII protein)]
4. LTGKNFPMFHRN [Pep1 (synthetic peptide …)]

[reply]
[10, 0.0001, 0.0001, 10]
